Test name: Plasma PK analysis after 30-min I.V. infusion in subjects with advanced cancer
Assay type: in vivo, human
Experimental setup: human, plasma, iv; 900 mg/m^2, 30-min I.V. infusion, cycle 1; read-out: Cmax
Quantity name: Cmax (µg/mL)
Could you give me the number in µg/mL? Just the number is fine.

Task: Please give the measured Cmax for this compound: `O=C(/C=C/c1cccc(S(=O)(=O)Nc2ccccc2)c1)NO`
Result: 53.8

====

Test name: Plasma PK analysis after 30-min I.V. infusion in subjects with advanced cancer
Type: in vivo, human
Experimental setup: human, plasma, iv; I.V., across dose levels 150-1200 mg/m^2; read-out: elimination half-life
Quantity name: half-life

Task: Please give the measured half-life for this compound: `O=C(/C=C/c1cccc(S(=O)(=O)Nc2ccccc2)c1)NO`
Result: 0.783 to 1.43 h

====

Test name: Plasma PK analysis after 30-min I.V. infusion in subjects with advanced cancer
Assay type: in vivo, human
Experimental setup: human, plasma, iv; 900 mg/m^2, 30-min I.V. infusion, cycle 1
Quantity name: AUC(0-t) (ng·h/mL)
Could you give me the number in ng·h/mL? Just the number is fine.

Task: Please give the measured AUC(0-t) for this compound: `O=C(/C=C/c1cccc(S(=O)(=O)Nc2ccccc2)c1)NO`
Result: 14700

====

Test name: Plasma PK analysis after 30-min I.V. infusion in subjects with advanced cancer
Format: in vivo, human
Experimental setup: human, plasma, iv; 300 mg/m^2, 30-min I.V. infusion, cycle 1; read-out: t1/2
Quantity name: half-life (min)
Could you give me the number in min? Just the number is fine.

Task: Please give the measured half-life for this compound: `O=C(/C=C/c1cccc(S(=O)(=O)Nc2ccccc2)c1)NO`
Result: 44.6

====

Test name: Plasma PK analysis after 30-min I.V. infusion in subjects with advanced cancer
Type: in vivo, human
Experimental setup: human, plasma, iv; 900 mg/m^2, 30-min I.V. infusion, cycle 1; read-out: t1/2
Quantity name: half-life (min)
Could you give me the number in min? Just the number is fine.

Task: Please give the measured half-life for this compound: O=C(/C=C/c1cccc(S(=O)(=O)Nc2ccccc2)c1)NO [PXD-101]
Result: 54.2

====

Test name: Plasma PK analysis after 30-min I.V. infusion in subjects with advanced cancer
Assay type: in vivo, human
Experimental setup: human, plasma, iv; 150 mg/m^2, 30-min I.V. infusion, cycle 1; read-out: t1/2
Quantity name: half-life (min)
Could you give me the number in min? Just the number is fine.

Task: Please give the measured half-life for this molecule: O=C(/C=C/c1cccc(S(=O)(=O)Nc2ccccc2)c1)NO [PXD-101]
Result: 46.6

====

Test name: Plasma PK analysis after 30-min I.V. infusion in subjects with advanced cancer
Type: in vivo, human
Experimental setup: human, plasma, iv; 150 mg/m^2, 30-min I.V. infusion, cycle 1
Quantity name: AUC(0-t)
Express your answer as a number followed by its unit.

Task: Please give the measured AUC(0-t) for this molecule: O=C(/C=C/c1cccc(S(=O)(=O)Nc2ccccc2)c1)NO [PXD-101]
Result: 1.27 µg·h/mL

====

Test name: Solubility of PXD-101 in demineralised water
Format: physicochemical
Quantity name: solubility
Express your answer as a number followed by its unit.

Task: Please give the measured solubility for this molecule: O=C(/C=C/c1cccc(S(=O)(=O)Nc2ccccc2)c1)NO [PXD-101]
Result: 140 µg/mL

====

Test name: physchem
Experimental setup: pH 9.33, aqueous with cosolvent or surfactant or cyclodextrin, thermodynamic from solid, PXD-101 Concentration
Quantity name: solubility thermodynamic (mg/mL)
Could you give me the number in mg/mL? Just the number is fine.

Task: Please give the measured solubility thermodynamic for this compound: `O=C(/C=C/c1cccc(S(=O)(=O)Nc2ccccc2)c1)NO`
Result: 39.1

====

Test name: physchem
Experimental setup: pH 9.07, aqueous with cosolvent or surfactant or cyclodextrin, thermodynamic from solid, PXD-101 Concentration
Quantity name: solubility thermodynamic
Express your answer as a number followed by its unit.

Task: Please give the measured solubility thermodynamic for this molecule: `O=C(/C=C/c1cccc(S(=O)(=O)Nc2ccccc2)c1)NO`
Result: 13.5 mg/mL

====

Test name: Oral administration of PXD-101 (gelatin capsule) to subjects
Type: in vivo, human
Experimental setup: human, plasma; oral formulation (gelatin capsule)
Quantity name: bioavailability

Task: Please give the measured bioavailability for this molecule: `O=C(/C=C/c1cccc(S(=O)(=O)Nc2ccccc2)c1)NO`
Result: ~33%

====

Test name: Plasma PK analysis after 30-min I.V. infusion in subjects with advanced cancer
Type: in vivo, human
Experimental setup: human, plasma, iv; 1200 mg/m^2, 30-min I.V. infusion, cycle 1
Quantity name: AUC(0-t) (µg·h/mL)
Could you give me the number in µg·h/mL? Just the number is fine.

Task: Please give the measured AUC(0-t) for this molecule: O=C(/C=C/c1cccc(S(=O)(=O)Nc2ccccc2)c1)NO [PXD-101]
Result: 22

====

Test name: Plasma PK analysis after 30-min I.V. infusion in subjects with advanced cancer
Type: in vivo, human
Experimental setup: human, plasma, iv; 600 mg/m^2, 30-min I.V. infusion, cycle 1; read-out: t1/2
Quantity name: half-life (min)
Could you give me the number in min? Just the number is fine.

Task: Please give the measured half-life for this compound: `O=C(/C=C/c1cccc(S(=O)(=O)Nc2ccccc2)c1)NO`
Result: 43.4

====

Test name: Plasma PK analysis after 30-min I.V. infusion in subjects with advanced cancer
Type: in vivo, human
Experimental setup: human, plasma, iv; 300 mg/m^2, 30-min I.V. infusion, cycle 1
Quantity name: AUC(0-t) (ng·h/mL)
Could you give me the number in ng·h/mL? Just the number is fine.

Task: Please give the measured AUC(0-t) for this molecule: O=C(/C=C/c1cccc(S(=O)(=O)Nc2ccccc2)c1)NO [PXD-101]
Result: 3500

====

Test name: Plasma PK analysis after 30-min I.V. infusion in subjects with advanced cancer
Type: in vivo, human
Experimental setup: human, plasma, iv; 1200 mg/m^2, 30-min I.V. infusion, cycle 1; read-out: Cmax
Quantity name: Cmax (µg/mL)
Could you give me the number in µg/mL? Just the number is fine.

Task: Please give the measured Cmax for this molecule: `O=C(/C=C/c1cccc(S(=O)(=O)Nc2ccccc2)c1)NO`
Result: 52.4

====

Test name: physchem
Experimental setup: pH 9.19, aqueous with cosolvent or surfactant or cyclodextrin, thermodynamic from solid, PXD-101 Concentration
Quantity name: solubility thermodynamic (mg/mL)
Could you give me the number in mg/mL? Just the number is fine.

Task: Please give the measured solubility thermodynamic for this compound: O=C(/C=C/c1cccc(S(=O)(=O)Nc2ccccc2)c1)NO [PXD-101]
Result: 31.1

====

Test name: Plasma PK analysis after 30-min I.V. infusion in subjects with advanced cancer
Type: in vivo, human
Experimental setup: human, plasma, iv; 1200 mg/m^2, 30-min I.V. infusion, cycle 1; read-out: t1/2
Quantity name: half-life (h)
Could you give me the number in h? Just the number is fine.

Task: Please give the measured half-life for this compound: O=C(/C=C/c1cccc(S(=O)(=O)Nc2ccccc2)c1)NO [PXD-101]
Result: 1.43

====

Test name: physchem
Experimental setup: pH 9.4, aqueous with cosolvent or surfactant or cyclodextrin, thermodynamic from solid, PXD-101 Concentration
Quantity name: solubility thermodynamic (mg/mL)
Could you give me the number in mg/mL? Just the number is fine.

Task: Please give the measured solubility thermodynamic for this compound: O=C(/C=C/c1cccc(S(=O)(=O)Nc2ccccc2)c1)NO [PXD-101]
Result: 57.3
